Reported Fik Kinase %Inhibition values follow for various molecules
SYSTEM: FLK-1 receptor (Mus musculus, UniProt P35918)
Construct: expressed in transfected cells; host or cells: NIH3T3 C7#3
Sequence (P35918 20-1345): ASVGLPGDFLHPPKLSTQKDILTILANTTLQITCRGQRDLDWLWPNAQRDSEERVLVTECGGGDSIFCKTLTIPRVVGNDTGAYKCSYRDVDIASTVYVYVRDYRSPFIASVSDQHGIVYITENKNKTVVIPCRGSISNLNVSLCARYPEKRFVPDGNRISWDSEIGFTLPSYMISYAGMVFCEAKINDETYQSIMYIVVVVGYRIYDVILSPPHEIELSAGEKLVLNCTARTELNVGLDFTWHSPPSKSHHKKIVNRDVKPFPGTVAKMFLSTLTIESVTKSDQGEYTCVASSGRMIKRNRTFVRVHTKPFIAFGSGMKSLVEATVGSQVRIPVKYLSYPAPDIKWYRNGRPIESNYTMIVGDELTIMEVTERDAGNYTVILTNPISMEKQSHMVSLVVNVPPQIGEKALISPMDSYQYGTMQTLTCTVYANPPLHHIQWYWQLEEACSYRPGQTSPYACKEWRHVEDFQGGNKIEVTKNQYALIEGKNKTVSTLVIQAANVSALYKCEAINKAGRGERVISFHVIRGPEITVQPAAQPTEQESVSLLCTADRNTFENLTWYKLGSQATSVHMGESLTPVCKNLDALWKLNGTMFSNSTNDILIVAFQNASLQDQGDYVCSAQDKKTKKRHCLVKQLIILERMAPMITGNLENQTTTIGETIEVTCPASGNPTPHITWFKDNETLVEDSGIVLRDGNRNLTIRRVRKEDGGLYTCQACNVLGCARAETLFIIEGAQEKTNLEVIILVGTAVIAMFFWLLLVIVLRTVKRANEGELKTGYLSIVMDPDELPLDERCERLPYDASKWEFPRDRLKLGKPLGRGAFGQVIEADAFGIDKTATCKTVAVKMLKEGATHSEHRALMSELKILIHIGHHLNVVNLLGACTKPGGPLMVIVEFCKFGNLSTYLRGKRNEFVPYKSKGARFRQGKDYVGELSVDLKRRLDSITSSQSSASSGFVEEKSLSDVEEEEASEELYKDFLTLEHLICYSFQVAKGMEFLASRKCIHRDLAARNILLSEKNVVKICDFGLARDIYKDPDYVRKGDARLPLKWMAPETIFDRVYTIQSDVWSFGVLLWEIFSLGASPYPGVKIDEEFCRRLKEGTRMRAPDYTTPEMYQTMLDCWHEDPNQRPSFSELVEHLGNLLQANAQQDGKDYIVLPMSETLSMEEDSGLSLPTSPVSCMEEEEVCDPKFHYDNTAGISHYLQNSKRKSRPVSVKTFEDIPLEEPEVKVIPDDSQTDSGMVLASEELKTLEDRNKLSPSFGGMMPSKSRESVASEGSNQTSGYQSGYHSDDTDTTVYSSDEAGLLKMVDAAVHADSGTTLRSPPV
TEST NAME: FLK-1 ELISA (kinase activity of the FLK-1 receptor in FLK-1/NIH3T3 cells, VEGF stimulated)
Assay type: cell-based
Please give the number followed by its unit.

Cc1c(Br)ccc2c1C(=Cc1cc(C(C)(C)C)c(OCc3ccccc3)c(C(C)(C)C)c1)C(=O)N2: 11.5%

Challenge: For the molecule shown here, CNS(=O)(=O)c1ccc2c(c1)C(=Cc1cc(Br)c(OC)c(C(C)(C)C)c1)C(=O)N2 , give the reported Fik Kinase %Inhibition.
Response given: 14.7%

Challenge: What about this molecule? O=C1Nc2ccc(I)cc2C1=Cc1ccc(C(F)(F)F)cc1
Response given: 5.2%

Challenge: What about CNS(=O)(=O)c1ccc2c(c1)C(=Cc1cc(Br)c(O)c(C(C)(C)C)c1)C(=O)N2 ?
Response given: 23.7%

Challenge: Would you mind doing CN(C)c1ccc(C=C2C(=O)Nc3ccc(CCCl)cc32)c2ccccc12 as well?
Response given: 15.1%

Challenge: Another molecule to look at: Cc1c(Br)ccc2c1C(=Cc1coc3ccc(C(C)C)cc3c1=O)C(=O)N2
Response given: 14.9%

Challenge: // same read-out, input: Cc1cc(C=C2C(=O)Nc3ccc(I)cc32)[nH]n1
Response given: -61.0%

Challenge: Same read-out for CC(C)(C)c1cc(C=C2C(=O)Nc3c(Br)cc(Br)cc32)ccc1OCc1ccccc1 ?
Response given: -0.0%

Challenge: Further, for CC(C)(C)c1cc(C=C2C(=O)Nc3ccc(S(=O)(=O)Nc4ccc(C(F)(F)F)cc4)cc32)c(O)c(C(C)(C)C)c1 ?
Response given: 8.9%

Challenge: Can you check O=C1Nc2ccc(CCCl)cc2C1=Cc1ccc(Cl)c([N+](=O)[O-])c1 next?
Response given: 6.1%

Challenge: Also O=C1Nc2ccc(S(=O)(=O)Nc3ccc(C(F)(F)F)cc3)cc2C1=Cc1ccc(O)cc1O , if possible.
Response given: -0.4%

Challenge: Here is the next molecule: COc1cc(Br)c(O)c(C=C2C(=O)Nc3ccc(CCCl)cc32)c1
Response given: -4.7%

Challenge: # iterate: CCc1c(C)[nH]c(C=C2C(=O)Nc3ccc(S(=O)(=O)Nc4ccc(C(F)(F)F)cc4)cc32)c1C
Response given: 21.5%

Challenge: Moving on to the next molecule: O=C1Nc2ccc(CCCl)cc2C1=Cc1cccc(F)c1O
Response given: 11.6%

Challenge: Follow-up item: CNS(=O)(=O)c1ccc2c(c1)C(=Cc1ccccc1OCC(=O)O)C(=O)N2
Response given: 17.9%

Challenge: Request: COc1cc(C=C2C(=O)Nc3ccc(S(=O)(=O)Nc4ccc(C(F)(F)F)cc4)cc32)cc2c1OCO2
Response given: 16.3%

Challenge: Another molecule to look at: Cc1cc2occ(C=C3C(=O)Nc4ccc(S(=O)(=O)N5CCOCC5)cc43)c(=O)c2cc1C
Response given: 7.9%
